B1: Neutrophil cytosol factor 2, residues 456 to 514; numbered along this chain, P19878 (parent)
chain: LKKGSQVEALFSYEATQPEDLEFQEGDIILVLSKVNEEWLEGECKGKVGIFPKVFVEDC

Variants of: B1
procedure.details: abundance fitness (aPCA) (normalised: wild type 0, dead -1); higher = more abundant; growth selection in yeast, the domain comes from the species named
experimental.conditions: Homo sapiens
Threshold rule: abundance fitness greater than or equal to -0.3 is label 1; below that, label 0.

Problem: Is the recorded value of abundance fitness equal to or greater than -0.3 for this variant? E43R
Solution: label 0

Problem: Now this one: L10N
Solution: label 1

Problem: Now this one: L40W
Solution: label 1

Problem: Now this one: V35K
Solution: label 1

Problem: Now this one: E43M
Solution: label 1

Problem: Now this one: V56N
Solution: label 0

Problem: Now this one: E37C
Solution: label 1

Problem: Now this one: I28H
Solution: label 1

Problem: Now this one: S33Y
Solution: label 0

Problem: Now this one: S33V
Solution: label 1

Problem: Now this one: A15I
Solution: label 0

Problem: Now this one: T16W
Solution: label 0

Problem: Now this one: V35M
Solution: label 1

Problem: Now this one: E41L
Solution: label 1

Problem: Now this one: V31G
Solution: label 1

Problem: Now this one: P52W
Solution: label 0

Problem: Now this one: Q17K
Solution: label 1

Problem: Now this one: D58F
Solution: label 0

Problem: Now this one: F51T
Solution: label 1

Problem: Now this one: Q17R
Solution: label 1

Problem: Now this one: W39P
Solution: label 0

Problem: Now this one: N36F
Solution: label 0

Problem: Now this one: V54M
Solution: label 1

Problem: Now this one: E8T
Solution: label 1

Problem: Now this one: Q24G
Solution: label 0

Problem: Now this one: L32T
Solution: label 1

Problem: Now this one: E25W
Solution: label 0

Problem: Now this one: K3M
Solution: label 1

Problem: Now this one: L40A
Solution: label 0

Problem: Now this one: K53R
Solution: label 1

Problem: Now this one: I50H
Solution: label 0

Problem: Now this one: Q6M
Solution: label 1

Problem: Now this one: I29L
Solution: label 0

Problem: Now this one: L10M
Solution: label 1

Problem: Now this one: K47F
Solution: label 1

Problem: Now this one: G26M
Solution: label 1

Problem: Now this one: N36W
Solution: label 0

Problem: Now this one: E57H
Solution: label 1

Problem: Now this one: E37W
Solution: label 1

Problem: Now this one: S12C
Solution: label 0

Problem: Now this one: L21M
Solution: label 0

Problem: Now this one: G46D
Solution: label 0

Problem: Now this one: E43T
Solution: label 1

Problem: Now this one: F11S
Solution: label 0

Problem: Now this one: G46L
Solution: label 1
